Measured clearance values are reported for all entries that follow.
Experiment: Clearance at low levels in rat after 5 mpk dosage administration
Type: ADME, organism-based
Conditions: in vivo, 5 mg/kg

| smiles.structure | clearance |
| --- | --- |
| O=C(O)/C(=C/c1ccc(Oc2ccccc2Cl)cc1)NC(=O)c1ccccc1 | 5.17 mL/min/kg |

Let us move to another entry and its clearance.
If you can, please state the reported clearance value of O=C(O)/C(=C/c1ccc(Oc2ccccc2Br)cc1)NC(=O)c1ccccc1 .
3.33 mL/min/kg

* * *

Consider the following pIC50 values measured on RNA-directed RNA polymerase (Hepacivirus hominis, UniProt O39930).
Sequence (O39930 whole entry): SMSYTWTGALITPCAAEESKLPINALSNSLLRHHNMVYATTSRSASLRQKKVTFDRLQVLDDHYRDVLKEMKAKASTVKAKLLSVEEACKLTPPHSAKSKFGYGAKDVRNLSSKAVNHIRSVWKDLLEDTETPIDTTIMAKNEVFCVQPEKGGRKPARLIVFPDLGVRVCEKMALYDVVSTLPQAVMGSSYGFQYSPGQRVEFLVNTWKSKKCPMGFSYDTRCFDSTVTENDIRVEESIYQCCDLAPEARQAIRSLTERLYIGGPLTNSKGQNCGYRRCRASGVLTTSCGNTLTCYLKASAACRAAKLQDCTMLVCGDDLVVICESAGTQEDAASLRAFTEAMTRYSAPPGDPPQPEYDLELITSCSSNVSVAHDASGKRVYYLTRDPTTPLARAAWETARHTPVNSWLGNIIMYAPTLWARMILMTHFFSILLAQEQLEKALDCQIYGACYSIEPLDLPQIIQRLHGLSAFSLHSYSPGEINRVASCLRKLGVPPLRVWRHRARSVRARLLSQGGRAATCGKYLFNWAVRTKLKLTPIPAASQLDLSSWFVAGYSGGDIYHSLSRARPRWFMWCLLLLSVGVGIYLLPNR
// pIC50 is dimensionless: -log10 of concentration (M)

| smiles.structure | recorded.result |
| --- | --- |
| O=C(O)/C(=C/c1ccc(Oc2c(Cl)cccc2[N+](=O)[O-])cc1)NC(=O)c1ccccc1 | 5.26 |
| O=C(O)/C(=C/c1ccc(Oc2ccccc2F)cc1)NC(=O)c1ccccc1 | 5.16 |
| O=C(O)/C(=C/c1ccc(Oc2ccccc2C(F)(F)F)cc1)NC(=O)c1ccccc1 | 5.89 |

Let us move to another entry and its pIC50.
If you can, please state the reported pIC50 value of O=C(O)/C(=C/c1cccc(-c2ccccc2Cl)n1)NC(=O)c1ccccc1 .
4.96
